target: UniProt P43405
Quantity kind: IC50 (µM)

Example cases with answers are listed next.
COc1ccc(-c2cc3ncsc3c(O[C@H](C)[C@H]3CNC(=O)C3)n2)cc1OC | 0.005
C[C@@H](Oc1cc(-c2cnn(C)c2)cc2nscc12)[C@H]1CNC(=O)C1 | 0.046

A: C[C@@H](Oc1nc(-c2cnn(C(F)F)c2)cc2ncsc12)[C@H]1CNC(=O)O1
B: C[C@@H](Oc1cc(-c2cnn(C(F)F)c2)cc2ncsc12)[C@H]1CNC(=O)O1
Q: Lower value for measured IC50? Options: A , B Write the label of whichever entry you select.
Result: B

---

test: Oral bioavailability in Sprague-Dawley rat at 3 mg/kg administered as cassette dosing; type: ADME, organism-based; settings: in vivo
Quantity kind: bioavailability (%)

Example cases with answers are listed next.
C[C@@H](Oc1nc(-c2cnn(C(F)F)c2)cc2ncsc12)[C@H]1CNC(=O)O1 | 88
C[C@@H](Oc1cc(-c2cnn(C)c2)cc2nscc12)[C@H]1CNC(=O)C1 | 30
C[C@@H](Oc1nc(-c2cnn(C)c2)cc2nscc12)[C@H]1CNC(=O)C1 | 27

P: COc1ccc(-c2cc3ncsc3c(O[C@H](C)[C@H]3CNC(=O)C3)n2)cc1OC
Q: C[C@@H](Oc1cc(-c2cnn(C)c2)cc2nscc12)[C@H]1CNC(=O)O1
Q: Lower value for measured bioavailability? Options: P , Q Write the label of whichever entry you select.
Result: P
